Origin of values: ChEMBL document CHEMBL5154881

protocol.description: AUC (0 to t) in 12 hr starved C57 mouse at 30 mg/kg, po measured for 0.083 to 24 hrs post-dose by LC-MS-MS analysis
Type: ADME, organism-based
Parameters: time upper 24 hrs, dose 30 mg/kg, time lower 0.083 hrs, route po
measurement.context: in vivo

# smiles.notation, AUC(0-t) [ng·h/mL]
data = [
    ("COc1ccc([C@H]2CC(=O)c3cc(OC)cc(OC)c32)cc1", 9900),
]

----------
protocol.description: MRT (0 to infinity) in 12 hr starved C57 mouse at 5 mg/kg, iv measured for 0.083 to 24 hrs post-dose by LC-MS-MS analysis
Assay type: ADME, organism-based
measurement.context: in vivo, time 0.083-24 hrs

# smiles.notation, unit.tag, MRT inf
measured = [
    ("COc1ccc([C@H]2CC(=O)c3cc(OC)cc(OC)c32)cc1", "h", 7.32),
]
